Assay: Inhibition of full-length myosin ATPase activity in bovine cardiac myofibrils
Assay type: subcellular, Bos taurus, Heart
reported endpoint: IC50 (nM)

Example entries and their recorded answers appear below.
compound	IC50 [nM]
Cn1nnc(C(=O)N[C@@H]2CCc3cc(-c4noc(C5CC5)n4)ccc32)n1	1000
CC(C)c1nc(-c2ccc3c(c2)CC[C@H]3NC(=O)c2nnn(C)n2)no1	1900

a. CCc1nc(-c2ccc3c(c2)CC[C@H]3NC(=O)c2cnc(C)o2)no1
b. Cc1nc(-c2ccc3c(c2)CCC3NC(=O)c2cnc(C)n2C)no1 (racemic)
c. Cc1nc(-c2ccc3c(c2)CC[C@H]3NC(=O)c2cnn(C)c2)no1
d. CCc1nc(-c2ccc3c(c2)CC[C@H]3NC(=O)c2ocnc2C)no1
// ranking: key=IC50, reverse=True Arrange the labels as the request states and list them.
b, c, a, d

P. Cc1cc(C(=O)NC2CCc3cc(-c4noc(C)n4)ccc32)on1 (racemic)
Q. Cc1nc(-c2ccc3c(c2)CCC3NC(=O)c2ccccc2)no1 (racemic)
R. Cc1nc(-c2ccc3c(c2)CCC3NC(=O)c2nnn(C)n2)no1 (racemic)
// ranking: key=IC50, reverse=True Arrange the labels as the request states and list them.
P, R, Q

---

Assay: Tmax in mouse at 1 mg/kg, po
Format: ADME, organism-based
Conditions: in vivo
reported endpoint: Tmax (min)
# value in min; strip the unit string

# get_value(readout='Tmax', item= CCc1nc(-c2ccc3c(c2)CC[C@H]3NC(=O)c2cnn(C)c2)no1 )
15

---

Organism: Bos taurus
Experiment: Inhibition of full-length myosin ATPase activity in bovine cardiac myofibrils
Format: subcellular
Details: Heart, Myofibril
reported endpoint: IC15 (µM)

chemical string	IC15 / µM
CCc1nc(-c2ccc3c(c2)CCN3CCc2ccccc2)no1	3.4

P. CCc1nc(-c2ccc3c(c2)CCN3C(=O)Cc2ccccc2)no1
Q. CCc1nc(-c2ccc3c(c2)CCN3C(=O)OCc2ccccc2)no1
Which has the smaller recorded IC15, P or Q ? Indicate your choice by writing its label.
Q

---

Assay: Tmax in Sprague-Dawley rat at 8 mg/kg, po
Assay type: ADME, organism-based
Settings: in vivo
reported endpoint: Tmax (min)
# value in min; strip the unit string

# get_value(readout='Tmax', item= CCc1nc(-c2ccc3c(c2)CC[C@H]3NC(=O)c2cnn(C)c2)no1 )
34.8

---

Experiment: Oral bioavailability in Sprague-Dawley rat at 2 mg/kg
Assay type: ADME, organism-based
Conditions: in vivo
reported endpoint: bioavailability (%)
# value in %; strip the unit string

# get_value(readout='bioavailability', item= Cn1nnc(C(=O)N[C@@H]2CCc3cc(-c4noc(C5CC5)n4)ccc32)n1 )
100

---

Assay: Half life in Sprague-Dawley rat at 1 mg/kg
Assay type: ADME, organism-based
Details: in vivo
reported endpoint: half-life (h)

molecule	half-life [h]
CCc1nc(-c2ccc3c(c2)CC[C@H]3NC(=O)c2ccnc(C)c2)no1	3.5
CCc1nc(-c2ccc3c(c2)CC[C@H]3NC(=O)c2ocnc2C)no1	14.7
CCc1nc(-c2ccc3c(c2)CC[C@H]3NC(=O)c2cn[nH]c2)no1	1.4

1. CCc1nc(-c2ccc3c(c2)CC[C@H]3NC(=O)c2cnn(C)c2)no1 [AFICAMTEN]
2. Cc1cc(C(=O)N[C@@H]2CCc3cc(-c4noc(C(C)C)n4)ccc32)ccn1
Rank 1 against 2 by their half-life values and give the higher one. Indicate your choice by writing its label.
2

---

Test: Oral bioavailability in mouse at 1 mg/kg
Format: ADME, organism-based
Conditions: in vivo
reported endpoint: bioavailability (%)
# value in %; strip the unit string

# get_value(readout='bioavailability', item= CCc1nc(-c2ccc3c(c2)CC[C@H]3NC(=O)c2cnn(C)c2)no1 )
98

---

Test: Clearance in mouse at 0.5 mg/kg, iv
Format: ADME, organism-based
Settings: in vivo
reported endpoint: clearance (mL/min/kg)
# value in mL/min/kg; strip the unit string

# get_value(readout='clearance', item= CCc1nc(-c2ccc3c(c2)CC[C@H]3NC(=O)c2cnn(C)c2)no1 [AFICAMTEN] )
8.8

---

Test: Half life in Sprague-Dawley rat at 2 mg/kg, po
Assay type: ADME, organism-based
Conditions: in vivo
reported endpoint: half-life (h)
# value in h; strip the unit string

# get_value(readout='half-life', item= CCc1nc(-c2ccc3c(c2)CC[C@H]3NC(=O)c2cnn(C)c2)no1 )
2.6

---

Experiment: AUC (0 to t) in Sprague-Dawley rat at 8 mg/kg, po
Format: ADME, organism-based
Design: dose 8 mg/kg
Conditions: in vivo
reported endpoint: AUC(0-t) (ng·h/mL)
# value in ng·h/mL; strip the unit string

# get_value(readout='AUC(0-t)', item= CCc1nc(-c2ccc3c(c2)CC[C@H]3NC(=O)c2cnn(C)c2)no1 )
53700

---

Assay: AUC (0 to t) in mouse at 1 mg/kg, po
Format: ADME, organism-based
Design: dose 1 mg/kg
Conditions: in vivo
reported endpoint: AUC(0-t) (ng·h/mL)
# value in ng·h/mL; strip the unit string

# get_value(readout='AUC(0-t)', item= CCc1nc(-c2ccc3c(c2)CC[C@H]3NC(=O)c2cnn(C)c2)no1 )
1830

---

Assay: Plasma protein binding in Sprague-Dawley rat assessed as unbound fraction
Type: ADME
reported endpoint: fraction unbound
// return just the number, without any unit appended

# get_value(readout='fraction unbound', item= CCc1nc(-c2ccc3c(c2)CC[C@H]3NC(=O)c2cnn(C)c2)no1 [AFICAMTEN] )
0.018

---

Assay: Clearance in Sprague-Dawley rat at 1 mg/kg
Conditions: in vivo
reported endpoint: clearance (mL/min/kg)

Example entries and their recorded answers appear below.
chemical string	clearance (mL/min/kg)
CCc1nc(-c2ccc3c(c2)CC[C@H]3NC(=O)c2nnn(C)n2)no1	20
CCc1nc(-c2ccc3c(c2)CC[C@H]3NC(=O)c2ocnc2C)no1	40
Cc1cc(C(=O)N[C@@H]2CCc3cc(-c4noc(C(C)C)n4)ccc32)ccn1	14
CC(C)c1nc(-c2ccc3c(c2)CC[C@H]3NC(=O)c2nnn(C)n2)no1	16
CCc1nc(-c2ccc3c(c2)CC[C@H]3NC(=O)c2cnc(C)o2)no1	21
CCc1nc(-c2ccc3c(c2)CC[C@H]3NC(=O)c2cc(C)ncn2)no1	20
Cn1nnc(C(=O)N[C@@H]2CCc3cc(-c4noc(C5CC5)n4)ccc32)n1	5
Cc1cc(C(=O)N[C@@H]2CCc3cc(-c4noc(C5CC5)n4)ccc32)ccn1	3
CCc1nc(-c2ccc3c(c2)CC[C@H]3NC(=O)c2ccnnc2)no1	44

1. CCc1nc(-c2ccc3c(c2)CC[C@H]3NC(=O)c2ccnc(C)c2)no1
2. CCc1nc(-c2ccc3c(c2)CC[C@H]3NC(=O)c2cn[nH]c2)no1
Which has the smaller recorded clearance, 1 or 2 ? Indicate your choice by writing its label.
1
(1: 13 mL/min/kg, 2: 63 mL/min/kg)

---

Assay: Half life in mouse at 1 mg/kg, po
Format: ADME, organism-based
Conditions: in vivo
reported endpoint: half-life (h)
# value in h; strip the unit string

# get_value(readout='half-life', item= CCc1nc(-c2ccc3c(c2)CC[C@H]3NC(=O)c2cnn(C)c2)no1 )
3.4

---

Assay: Half life in Sprague-Dawley rat at 1 mg/kg, iv
Type: ADME, organism-based
Details: in vivo
reported endpoint: half-life (h)
# value in h; strip the unit string

# get_value(readout='half-life', item= CCc1nc(-c2ccc3c(c2)CC[C@H]3NC(=O)c2cnn(C)c2)no1 )
3

---

Assay: Clearance in Sprague-Dawley rat at 1 mg/kg
Format: ADME, organism-based
Conditions: in vivo
reported endpoint: clearance (mL/min/kg)

molecule	reported endpoint	numeric value
CCc1nc(-c2ccc3c(c2)CC[C@H]3NC(=O)c2cc(C)ncn2)no1	clearance	20

1. CCc1nc(-c2ccc3c(c2)CC[C@H]3NC(=O)c2cnn(C)c2)no1 [AFICAMTEN]
2. CCc1nc(-c2ccc3c(c2)CC[C@H]3NC(=O)c2ccnnc2)no1
3. CCc1nc(-c2ccc3c(c2)CC[C@H]3NC(=O)c2cn[nH]c2)no1
4. CCc1nc(-c2ccc3c(c2)CC[C@H]3NC(=O)c2cnc(C)o2)no1
// ranking: key=clearance, reverse=True Arrange the labels as the request states and list them.
3, 2, 4, 1
(3: 63 mL/min/kg, 2: 44 mL/min/kg, 4: 21 mL/min/kg, 1: 2.1 mL/min/kg)

---

Assay: Half life in cynomolgus monkey at 1 mg/kg, iv
Type: ADME, organism-based, Macaca fascicularis
Details: in vivo
reported endpoint: half-life (h)
# value in h; strip the unit string

# get_value(readout='half-life', item= CCc1nc(-c2ccc3c(c2)CC[C@H]3NC(=O)c2cnn(C)c2)no1 [AFICAMTEN] )
8.1

---

Experiment: Cmax in cynomolgus monkey at 1 mg/kg, po
Format: ADME, organism-based, Macaca fascicularis
Set-up: route oral, dose 1 mg/kg
Conditions: in vivo
reported endpoint: Cmax (ng/mL)
# value in ng/mL; strip the unit string

# get_value(readout='Cmax', item= CCc1nc(-c2ccc3c(c2)CC[C@H]3NC(=O)c2cnn(C)c2)no1 )
65

The origin of these recorded values is ChEMBL document CHEMBL4831540.
